Tested on: MV4-11 cells
Test: Cell proliferation assay (ATPlite)
Assay type: cell-based
Conditions: Homo sapiens, 120 h; MV4-11 cells, five days; read-out: GI MV411 EC50
I'd be grateful if you could share measured EC50 for these entries.
Numbers only, in nM.

Report EC50 for every entry below.
1. C[C@H]1CN(c2cc(F)c(-c3ccc(N4CCOCC4)nc3)c(F)c2NC(=O)c2ccc(F)cc2C(F)F)CCN1C
2. CC(C)OC(=O)N1CCC=C(c2c(F)cc(N3C[C@@H](C)N(C)[C@@H](C)C3)c(NC(=O)c3c[nH]c(=O)cc3C(F)(F)F)c2F)C1
3. C[C@H]1CN(c2cc(F)c(C3=CCN(C(=O)OC4CC(F)(F)C4)CC3)c(F)c2NC(=O)c2c[nH]c(=O)cc2C(F)(F)F)CCN1C
4. C[C@@H]1CN(c2nccc(-c3c(F)cc(N4CCN(C)[C@@H](C)C4)c(NC(=O)c4cn(C)c(=O)cc4C(F)F)c3F)n2)C[C@H](C)O1
5. C[C@@H]1CN(c2cc(F)c(C3=CCN(c4ccnc(C#N)n4)CC3)c(F)c2NC(=O)c2c[nH]c(=O)cc2C(F)(F)F)C[C@H](C)N1C
6. CC(C)OC(=O)N1CCC=C(c2c(F)cc(N3CCN(C)[C@@H](C)C3)c(NC(=O)c3c[nH]c(=O)cc3C(F)F)c2F)C1

1: 198; 2: 173; 3: 63; 4: 367; 5: 24; 6: 409

---

Biological target: WDR5 (Homo sapiens, UniProt P61964)
Assay: Surface Plasmon Resonance (SPR) assay
Assay type: binding
Design: Full length WDR5 with an N-terminal His tag and C-terminal AviTag; His tag (N); made in house; host or cells: E. coli
Conditions: read-out: SPR Kd
pKd: −log10 of the molar value.
# binarize pKd: threshold 9 inclusive, high side t, low side f

Below, 3 molecules whose answers are already recorded.
{"chemical string": "COc1cnc(N2CCC=C(c3c(F)cc(N4C[C@@H](C)N(C)[C@@H](C)C4)c(NC(=O)c4c[nH]c(=O)cc4C(F)(F)F)c3F)C2)nc1", "assigned category": "f"}
{"chemical string": "C[C@@H]1CN(c2cc(F)c(-c3ccc(C(N)=O)c(F)c3)c(F)c2NC(=O)c2c[nH]c(=O)cc2C(F)(F)F)C[C@H](C)N1C", "assigned category": "f"}
{"chemical string": "Cc1nc(C(=O)N2CCC=C(c3c(F)cc(N4C[C@@H](C)N(C)[C@@H](C)C4)c(NC(=O)c4c[nH]c(=O)cc4C(F)(F)F)c3F)C2)cs1", "assigned category": "f"}

State whether the measured pKd reaches 9, counting equality as reaching it, for C[C@H]1CN(c2ccc(-c3c(F)cc(N4CCN(C)[C@@H](C)C4)c(NC(=O)c4c[nH]c(=O)cc4C(F)(F)F)c3F)cn2)CCO1
t

State whether the measured pKd reaches 9, counting equality as reaching it, for CC(C)OC(=O)N1CCC=C(c2c(F)cc(N3CCN(C)[C@@H](C)C3)c(NC(=O)c3c[nH]c(=O)cc3C(F)(F)F)c2F)C1
f

State whether the measured pKd reaches 9, counting equality as reaching it, for CC(C)OC(=O)N1CC=C(c2c(F)cc(N3CCN(C)[C@@H](C)C3)c(NC(=O)c3c[nH]c(=O)cc3C(F)F)c2F)CC1
f

---

Biological target: WDR5 (Homo sapiens, UniProt P61964)
Assay: Surface Plasmon Resonance (SPR) assay
Format: binding
Set-up: Full length WDR5 with an N-terminal His tag and C-terminal AviTag; His tag (N); made in house; host or cells: E. coli
Settings: read-out: SPR Kd
I'd be grateful if you could share measured pKd for these entries.
Answers are plain numbers, as −log10 of the molar value.

Take a look at these entries with their results.
{"compound": "C[C@H]1CN(c2cc(F)c(-c3cnc(N4CC5CCC(C4)O5)nc3)c(F)c2NC(=O)c2c[nH]c(=O)cc2C(F)F)CCN1C [Example 155]", "pKd": 8.92}
{"compound": "C[C@H]1CN(c2cc(F)c(C3=CCN(C(=O)OC4CC(F)(F)C4)C3)c(F)c2NC(=O)c2c[nH]c(=O)cc2C(F)(F)F)CCN1C [Example 45]", "pKd": 8.88}
{"compound": "C[C@H]1CN(c2ncc(-c3c(F)cc(N4CCN(C)[C@@H](C)C4)c(NC(=O)c4cn(C)c(=O)cc4C(F)(F)F)c3F)cn2)C[C@H](C)O1 [Example 163]", "pKd": 8.96}
{"compound": "COc1cnc(N2CC=C(c3c(F)cc(N4C[C@@H](C)N(C)[C@@H](C)C4)c(NC(=O)c4c[nH]c(=O)cc4C(F)(F)F)c3F)C2)nc1 [Example 139]", "pKd": 8.78}
{"compound": "C[C@@H]1CN(c2ncc(-c3c(F)cc(N4CCN(C)[C@@H](C)C4)c(NC(=O)c4ccc(F)cc4C(F)(F)F)c3F)cn2)C[C@H](C)O1 [Example 66, Formic Acid]", "pKd": 8.69}

Query compound follows.
So what does the record say about pKd for C[C@@H]1CN(c2ncc(-c3c(F)cc(N4CCN(C)[C@@H](C)C4)c(NC(=O)c4c[nH]c(=O)cc4C(F)(F)F)c3F)cn2)CCO1 [Example 127] ?
9.16

---

Target: MLL1-WRAD2 complex (Homo sapiens, UniProt P61964)
Construct: His tag (N); made in house; host or cells: E. coli
Assay: MLL1-WRAD2 enzyme assay (HMT)
Format: biochemical
Settings: Table 2, no unit printed in the cell
result type: pIC50
Give bare numbers, as −log10 of the molar value.

So what does the record say about pIC50 for C[C@@H]1CN(c2ncc(-c3cc(NC(=O)c4c[nH]c(=O)cc4C(F)(F)F)c(N4C[C@@H](C)N(C)[C@@H](C)C4)cc3F)cn2)C[C@H](C)O1 [reference compound] ?
6.82

---

I'd be grateful if you could share measured IC50 for these entries.
Molecular target: UniProt P61964
Answers are plain numbers, in nM.

Take a look at these entries with their results.
{"molecule": "Cc1nc(C(=O)N2CCC=C(c3c(F)cc(N4C[C@@H](C)N(C)[C@@H](C)C4)c(NC(=O)c4c[nH]c(=O)cc4C(F)(F)F)c3F)C2)cs1 [Example 188]", "unit annotation": "nM", "measurement": 13.1}
{"molecule": "C[C@@H]1CN(c2cc(F)c(-c3cnc(N4CCO[C@@H](C)C4)nc3)c(F)c2NC(=O)c2c[nH]c(=O)cc2C(F)F)C[C@H](C)N1C [Example 125]", "unit annotation": "nM", "measurement": 11.9}
{"molecule": "COc1cc(N2CC=C(c3c(F)cc(N4CCN(C)[C@@H](C)C4)c(NC(=O)c4c[nH]c(=O)cc4C(F)(F)F)c3F)C2)ncn1 [Example 75]", "unit annotation": "nM", "measurement": 18.5}
{"molecule": "C[C@@H]1CN(c2ncc(-c3c(F)cc(N4CCN(C)[C@@H](C)C4)c(NC(=O)c4ccc(F)cc4C(F)(F)F)c3F)cn2)C[C@H](C)O1 [Example 66, Formic Acid]", "unit annotation": "nM", "measurement": 14.1}
{"molecule": "COc1cnc(N2CC=C(c3c(F)cc(N4CCN(C)[C@@H](C)C4)c(NC(=O)c4c[nH]c(=O)cc4C(F)(F)F)c3F)C2)nc1 [Example 51]", "unit annotation": "nM", "measurement": 17}

What value of IC50 on UniProt P61964 does C[C@@H]1CN(c2cc(F)c(-c3cnc(N4CCO[C@@H](C)C4)nc3)c(F)c2NC(=O)c2ccc(F)cc2C(F)(F)F)C[C@H](C)N1C [Example 16, formic acid] have?
6.99

---

Tested on: MV4-11 cells
Test: Cell proliferation assay (ATPlite)
Format: cell-based
Conditions: Homo sapiens, 120 h; MV4-11 cells, five days; read-out: GI MV411 EC50
result type: EC50 (nM)
Give bare numbers, in nM.

Take a look at these entries with their results.
{"compound": "COc1cnc(N2CC=C(c3c(F)cc(N4CCN(C)[C@@H](C)C4)c(NC(=O)c4c[nH]c(=O)cc4C(F)(F)F)c3F)CC2)nc1 [Example 53]", "EC50 (nM)": 75.8}
{"compound": "C[C@@H]1CN(c2ccc(-c3c(F)cc(N4CCN(C)[C@@H](C)C4)c(NC(=O)c4ccc(F)cc4C(F)F)c3F)cn2)C[C@H](C)O1 [Example 178]", "EC50 (nM)": 189}
{"compound": "CC(C)[C@H]1CN(c2ncc(-c3c(F)cc(N4C[C@@H](C)N(C)[C@@H](C)C4)c(NC(=O)c4c[nH]c(=O)cc4C(F)F)c3F)cn2)CCO1 [Example 122]", "EC50 (nM)": 22.1}

Report EC50 for every entry below.
1. C[C@H]1CN(c2ccc(-c3c(F)cc(N4CCN(C)[C@@H](C)C4)c(NC(=O)c4c[nH]c(=O)cc4C(F)(F)F)c3F)cn2)CCO1 [Example 171]
2. C[C@@H]1CN(c2ccc(-c3c(F)cc(N4CCN(C)[C@@H](C)C4)c(NC(=O)c4c[nH]c(=O)cc4C(F)F)c3F)cn2)CCO1 [Example 181]
3. CNC(=O)c1cc(-c2c(F)cc(N3C[C@@H](C)N(C)[C@@H](C)C3)c(NC(=O)c3c[nH]c(=O)cc3C(F)(F)F)c2F)ccc1F [Example 29]
4. C[C@@H]1CN(c2cc(F)c(-c3cnc(N(C)C)nc3)c(F)c2NC(=O)c2c[nH]c(=O)cc2C(F)(F)F)C[C@H](C)N1C [Example 70]
5. CC(C)OC(=O)N1CCC=C(c2c(F)cc(N3CCN(C)[C@@H](C)C3)c(NC(=O)c3c[nH]c(=O)cc3C(F)(F)F)c2F)C1 [Example 38]
6. C[C@@H]1CN(c2ccc(-c3c(F)cc(N4CCN(C)[C@@H](C)C4)c(NC(=O)c4c[nH]c(=O)cc4C(F)(F)F)c3F)cn2)CCO1 [Example 169]
7. CC(C)OC(=O)N1CC=C(c2c(F)cc(N3CCN(C)[C@@H](C)C3)c(NC(=O)c3c[nH]c(=O)cc3C(F)(F)F)c2F)CC1 [Example 39]
8. C[C@@H]1CN(c2ccc(-c3c(F)cc(N4CCN(C)[C@@H](C)C4)c(NC(=O)c4ccc(F)cc4C(F)F)c3F)cn2)CCO1 [Example 177]

51.9
29.9
1110
26.7
185
51.4
35.4
101

What value of EC50 on MV4-11 cells does COc1cc(N2CC=C(c3c(F)cc(N4C[C@@H](C)N(C)[C@@H](C)C4)c(NC(=O)c4c[nH]c(=O)cc4C(F)(F)F)c3F)C2)ncn1 [Example 143] have?
17.7

Data credit: patent US20200385371A1
